# TESTED_SYSTEM: MMP-14 (Homo sapiens, UniProt P50281)
# ASSAY_REMARKS: Selection and phage ELISA screening of anti-MMP-14 Fabs
# Assay type: binding
# TEST_PARAMETERS: Fab from FAB310 phage display library

MOLECULE	bind to human MMP-14
M0040-A06: human antibody (Fab, IgG) that binds and inhibits MMP-14; HC SEQ ID NO: 162, LC SEQ ID NO: 163 (antibody, V domains shown, Synthetically generated peptide) VH: EVQLLESGGGLVQPGGSLRLSCAASGFTFSYYGMYWVRQAPGKGLEWVSSISSSGGYTDYADSVKGRFTISRDNSKNTLYLQMNSLRAEDTAVYYCARRIKYYDIEGEGAFDIWGQGTMVTVSS VL: QDIVMTQTPPSLPVNPGEPASISCRSSQSLLHRNGYNYLDWYLQKPGQSPQLLIHLGSYRASGVPDRFSGSGSGTDFTLKISRVEAEDVGVYYCMQPLQTPFTFGPGTKVDIK	bind to human MMP-14
M0037-C03: Fab that binds human MMP-14; DNA LV SEQ ID NO: 40, HV SEQ ID NO: 41 (antibody, V domains shown, Synthetically generated oligonucleotide) VL: QDIQMTQSPSSVSASVGDRVTITCRASQGISSWLAWYQQKPGKAPKLLIYAASSLQSGVPSRFSGSGSGTDFTLTISSLQPEDFATYYCQQANSFPFVTFGQGTKLEIK VH: EVQLLESGGGLVQPGGSLRLSCAASGFTFSMYLMIWVRQAPGKGLEWVSVISSSGGQTKYADSVKGRFTISRDNSKNTLYLQMNSLRAEDTAVYYCARTDLTGYSAGAFDIWGQGTMVTVSS	bind to human MMP-14
